Target: Receptor tyrosine-protein kinase erbB-2 (Homo sapiens) (UniProt P04626)
Sequence (P04626 whole entry, looked up): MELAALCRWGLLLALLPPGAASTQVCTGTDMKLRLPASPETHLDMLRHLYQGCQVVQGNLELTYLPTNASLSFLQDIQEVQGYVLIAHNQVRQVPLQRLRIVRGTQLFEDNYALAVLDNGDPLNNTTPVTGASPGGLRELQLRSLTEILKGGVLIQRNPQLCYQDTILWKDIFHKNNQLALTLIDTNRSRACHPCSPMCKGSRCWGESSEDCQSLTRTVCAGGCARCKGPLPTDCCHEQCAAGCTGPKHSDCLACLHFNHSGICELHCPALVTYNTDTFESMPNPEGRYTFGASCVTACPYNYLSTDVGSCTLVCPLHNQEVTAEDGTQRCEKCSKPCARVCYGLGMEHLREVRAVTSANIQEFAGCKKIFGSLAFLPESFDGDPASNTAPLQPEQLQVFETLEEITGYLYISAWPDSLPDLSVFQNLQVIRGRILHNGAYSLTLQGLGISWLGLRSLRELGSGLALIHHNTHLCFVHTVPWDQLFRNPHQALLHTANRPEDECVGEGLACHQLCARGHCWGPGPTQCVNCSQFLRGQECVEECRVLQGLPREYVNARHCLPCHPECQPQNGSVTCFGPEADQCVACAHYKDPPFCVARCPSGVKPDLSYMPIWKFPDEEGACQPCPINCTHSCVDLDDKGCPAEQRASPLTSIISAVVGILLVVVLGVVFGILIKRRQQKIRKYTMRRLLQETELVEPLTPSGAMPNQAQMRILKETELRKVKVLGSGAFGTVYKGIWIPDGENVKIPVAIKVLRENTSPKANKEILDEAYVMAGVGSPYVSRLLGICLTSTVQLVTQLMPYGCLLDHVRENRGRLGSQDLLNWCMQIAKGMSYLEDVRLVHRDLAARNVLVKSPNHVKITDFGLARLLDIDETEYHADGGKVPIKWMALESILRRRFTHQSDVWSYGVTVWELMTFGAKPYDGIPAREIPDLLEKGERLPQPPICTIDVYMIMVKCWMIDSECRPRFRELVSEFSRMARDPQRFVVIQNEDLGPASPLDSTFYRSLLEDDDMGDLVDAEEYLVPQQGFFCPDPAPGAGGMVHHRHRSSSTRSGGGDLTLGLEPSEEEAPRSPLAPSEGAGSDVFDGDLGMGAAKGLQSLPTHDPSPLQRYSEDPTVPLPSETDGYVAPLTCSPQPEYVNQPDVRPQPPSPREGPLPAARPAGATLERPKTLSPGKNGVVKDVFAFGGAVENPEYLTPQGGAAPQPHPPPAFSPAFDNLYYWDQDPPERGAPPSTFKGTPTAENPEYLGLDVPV
Assay: Her2 expression decrease, cell viability multiplex – SKBR3 breast tumor cells, AlphaScreen, ATP viability, primary screen (AID 461)
Conditions: 18-24 h, at 10 µM, stronger effect = lower value
hey, just use Condition met if measured Her2 level is less than 90%, otherwise Condition not met

Some solved entries appear below for comparison.
# Compound, Cat
rows = [
    ("C=CCNC(=O)CSc1nc2sc(C)c(C)c2c(=O)[nH]1", "Condition not met"),
    ("COc1ccccc1NC(=O)CSc1nnc(Cc2cccn2C)n1-c1ccc(F)cc1", "Condition met"),
]

Next up:
[Q] # TODO verify Her2 level < 90% strictly for this compound: Cc1cccc(N2CCN(C(=O)c3cc4ccccc4oc3=O)CC2)c1C
[A] Condition not met
